# Protocol Details: Inhibition of Saccharomyces cerevisiae alpha-glucosidase using para-nitrophenyl-alpha-D-glucopyranoside as substrate preincubated for 15 mins followed by substrate addition measured after 30 mins by spectrophotometric method
# IC50 annotations

{"columns": ["Compound", "IC50, µM"],
 "data": [
  ["OC(CSc1nnc(-c2cccc(Br)c2)c(-c2cccc(Br)c2)n1)Cn1c2ccc(Cl)cc2c2cc(Cl)ccc21 (stereo not drawn)", 19.2],
  ["OC(CSc1nnc(-c2ccco2)c(-c2ccco2)n1)Cn1c2ccc(Br)cc2c2cc(Br)ccc21 (stereo not drawn)", 4.27],
  ["C[C@@H]1O[C@@H](O[C@@H]2[C@@H](O)[C@H](O)[C@H](O[C@H]3[C@H](O)[C@@H](O)C(O)O[C@@H]3CO)O[C@H]2CO)[C@@H](O)[C@H](O)[C@H]1N[C@H]1C=C(CO)[C@@H](O)[C@H](O)[C@H]1O (stereo partly drawn)", 996],
  ["OC(CSc1nnc(-c2ccc(F)cc2)c(-c2ccc(F)cc2)n1)Cn1c2ccccc2c2ccccc21 (stereo not drawn)", 17.6],
  ["O=[N+]([O-])c1ccc2c(c1)c1ccccc1n2CC(O)CSc1nnc(-c2ccccc2)c(-c2ccccc2)n1 (stereo not drawn)", 25],
  ["O=[N+]([O-])c1ccc2c(c1)c1ccccc1n2CC(O)CSc1nnc(-c2ccccc2F)c(-c2ccccc2F)n1 (stereo not drawn)", 22.1],
  ["OC(CSc1nnc(-c2ccccc2Cl)c(-c2ccccc2Cl)n1)Cn1c2ccccc2c2ccccc21 (stereo not drawn)", 47.8],
  ["OC(CSc1nnc(-c2cccc(Br)c2)c(-c2cccc(Br)c2)n1)Cn1c2ccc(Br)cc2c2cc(Br)ccc21 (stereo not drawn)", 9.56]
]}

* * *

# Protocol Details: Non-competitive inhibition of Saccharomyces cerevisiae alpha-glucosidase using para-nitrophenyl-alpha-D-glucopyranoside as substrate preincubated for 15 mins followed by substrate addition measured after 30 mins by Lineweaver-Burk plot analysis
pKi: −log10 of the molar value.
Endpoint Name: pKi

{"columns": ["Compound", "Result Value"],
 "data": [
  ["OC(CSc1nnc(-c2ccco2)c(-c2ccco2)n1)Cn1c2ccc(Br)cc2c2cc(Br)ccc21 (stereo unspecified)", 5.35]
]}
